target: human recombinant FAAH (Homo sapiens (Human)); assay: In vitro inhibition of human recombinant FAAH activity (Cayman FAAH inhibitor screening kit, AMC arachidonoyl amide hydrolysis)
Sequence (O00519 whole entry): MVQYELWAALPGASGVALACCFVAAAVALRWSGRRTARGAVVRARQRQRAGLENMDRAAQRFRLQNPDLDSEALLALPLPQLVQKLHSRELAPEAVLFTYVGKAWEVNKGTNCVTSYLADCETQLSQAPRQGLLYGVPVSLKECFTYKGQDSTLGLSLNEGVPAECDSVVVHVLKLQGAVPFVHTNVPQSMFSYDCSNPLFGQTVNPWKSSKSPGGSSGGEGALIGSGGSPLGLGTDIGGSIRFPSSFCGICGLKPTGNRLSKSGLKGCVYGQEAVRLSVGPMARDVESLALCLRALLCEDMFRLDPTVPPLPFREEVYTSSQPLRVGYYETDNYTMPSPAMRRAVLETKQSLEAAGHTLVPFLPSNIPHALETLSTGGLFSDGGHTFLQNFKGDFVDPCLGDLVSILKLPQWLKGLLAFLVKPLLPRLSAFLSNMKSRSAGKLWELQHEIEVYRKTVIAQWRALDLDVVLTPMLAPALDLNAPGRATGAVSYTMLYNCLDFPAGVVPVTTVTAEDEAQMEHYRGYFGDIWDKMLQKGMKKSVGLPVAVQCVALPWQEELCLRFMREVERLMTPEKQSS
assay endpoint: IC50

Sample records with IC50:
# compound, target, endpoint result
records = [
    ("COc1cccc(C(c2cccc(OC)c2)N2CCN(C(=O)n3cnc(C#N)n3)CC2)c1", "human recombinant FAAH (Homo sapiens (Human))", "1 to 10 µM"),
    ("N#Cc1ccc2c(c1)nnn2C(=O)N1CCC(N(c2ccc3c(c2)OCO3)c2ccc3c(c2)OCO3)CC1", "human recombinant FAAH (Homo sapiens (Human))", "0.1 to 1 µM"),
    ("N#Cc1ccc2c(c1)nnn2C(=O)N1CCN(C(c2ccc(F)cc2)c2ccc(F)cc2)CC1", "human recombinant FAAH (Homo sapiens (Human))", "~0.1 µM"),
]

Param readout= IC50; system= human recombinant FAAH (Homo sapiens (Human)); entry= O=C(N1CCN(C(c2ccc3c(c2)COCO3)c2ccc3c(c2)COCO3)CC1)n1nnc2ccccc21 ; returns value. > 20 µM

Notebook: pull reported IC50 for human recombinant FAAH (Homo sapiens (Human)), entry O=C(N1CCN(C(c2ccc3c(c2)COCO3)c2ccc3c(c2)COCO3)CC1)n1nnc2cc(C(F)(F)F)ccc21 > 1 µM

Identify the measured IC50 of N#Cc1ccc2c(c1)nnn2C(=O)N1CCC(N(c2cccnc2)c2ccc3c(c2)OCO3)CC1 for human recombinant FAAH (Homo sapiens (Human)). 0.1 to 1 µM

---

molecular target: human recombinant MAGL (Homo sapiens (Human)); test: In vitro inhibition of human recombinant MAGL activity (Cayman inhibitor screening kit, 4-nitrophenylacetate hydrolysis); format: biochemical; settings: human recombinant MAGL; read-out: Inhibition on MAGL activity (IC50)
pIC50: −log10 of the molar value.
assay endpoint: pIC50

Would you kindly share the measured pIC50 for N#Cc1ccc2c(c1)nnn2C(=O)N1CCC(N(c2ccc3c(c2)OCO3)c2ccc3c(c2)OCO3)CC1 [Example 68] ? 8.00 to 9.00

Which pIC50 is reported for this compound? N#Cc1ccc2nnn(C(=O)N3CCCN(C(c4ccc5c(c4)COCO5)c4ccc5c(c4)COCO5)CC3)c2c1 [Example 51] 7.00 to 8.00

Give its pIC50 value. Item: O=C(N1CCN(C(c2ccc3c(c2)COCO3)c2ccc3c(c2)COCO3)CC1)n1ncc(-c2ccccc2)n1 [Example 26] 7.00 to 8.00

Return reported pIC50; argument: N#Cc1ccc2nnn(C(=O)N3CCC(N(c4ccc5c(c4)OCO5)c4ccc5c(c4)OCO5)CC3)c2c1 [Example 67] 8.00 to 9.00

Which measured pIC50 value corresponds to N#Cc1ccc2nnn(C(=O)N3CCN(C(c4ccc5c(c4)OC(F)(F)O5)c4ccc5c(c4)OC(F)(F)O5)CC3)c2c1 [Example 98] ? 8.00 to 9.00

Requested read-out: pIC50. Entry: N#Cc1ccc2c(c1)nnn2C(=O)N1CC2(CC(OC(c3ccc4c(c3)COCO4)c3ccc4c(c3)COCO4)C2)C1 [Example 60] 7.00 to 8.00

---

Entries and their IC50
biological target: human recombinant MAGL (Homo sapiens (Human), UniProt Q99685); assay: In vitro inhibition of human recombinant MAGL activity (Cayman inhibitor screening kit, 4-nitrophenylacetate hydrolysis); assay type: biochemical; conditions: human recombinant MAGL; read-out: Inhibition on MAGL activity (IC50)
Sequence (Q99685 whole entry): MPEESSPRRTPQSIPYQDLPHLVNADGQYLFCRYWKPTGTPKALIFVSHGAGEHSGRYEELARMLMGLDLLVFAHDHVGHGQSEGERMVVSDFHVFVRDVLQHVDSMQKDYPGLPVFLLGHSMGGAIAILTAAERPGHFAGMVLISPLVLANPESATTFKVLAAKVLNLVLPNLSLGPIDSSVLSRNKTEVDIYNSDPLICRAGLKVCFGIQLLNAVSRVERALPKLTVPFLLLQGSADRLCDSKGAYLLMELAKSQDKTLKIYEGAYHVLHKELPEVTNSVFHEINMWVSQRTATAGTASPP

Solved cases (6 shown):
# given smiles, target, endpoint result
measured = [
    ("N#Cc1ncn(C(=O)N2CCN(C(c3ccc4c(c3)COCO4)c3ccc4c(c3)COCO4)CC2)n1", "human recombinant MAGL (Homo sapiens (Human), UniProt Q99685)", "10 to 100 nM"),
    ("N#Cc1ncn(C(=O)N2CCCC(=C(c3ccc4c(c3)COCO4)c3ccc4c(c3)COCO4)CC2)n1", "human recombinant MAGL (Homo sapiens (Human), UniProt Q99685)", "1 to 10 nM"),
    ("O=C(N1CCN(C(c2ccc3c(c2)COCO3)c2ccc3c(c2)COCO3)CC1)n1nnc2cc3c(cc21)OCCO3", "human recombinant MAGL (Homo sapiens (Human), UniProt Q99685)", "10 to 100 nM"),
    ("O=C(N1CCN(C(c2ccc3c(c2)COCO3)c2ccc3c(c2)COCO3)CC1)n1nnc2cc(F)ccc21", "human recombinant MAGL (Homo sapiens (Human), UniProt Q99685)", "10 to 100 nM"),
    ("N#Cc1ccc(C(c2ccc(C#N)cc2)N2CCN(C(=O)n3nnc4ccc(C#N)cc43)CC2)cc1", "human recombinant MAGL (Homo sapiens (Human), UniProt Q99685)", "1 to 10 nM"),
    ("N#Cc1ccc2nnn(C(=O)N3CC4(CC(OC(c5ccc6c(c5)COCO6)c5ccc6c(c5)COCO6)C4)C3)c2c1", "human recombinant MAGL (Homo sapiens (Human), UniProt Q99685)", "10 to 100 nM"),
]

// lookup IC50 for COc1ccc(N(c2ccc3c(c2)OCO3)C2CCN(C(=O)n3nnc4cc(C#N)ccc43)CC2)cc1 1 to 10 nM

Give its IC50 value. Item: O=C(Oc1ccc([N+](=O)[O-])cc1[N+](=O)[O-])N1CCN(C(c2ccc3c(c2)COCO3)c2ccc3c(c2)COCO3)CC1 > 100 nM

# IC50 lookup, item COc1ccc(C(c2ccc(OC)cc2)N2CCN(C(=O)n3nnc4ccc(C#N)cc43)CC2)cc1 1 to 10 nM

Entry O=C(OC(C(F)(F)F)C(F)(F)F)C1CCN(C(c2ccc3c(c2)COCO3)c2ccc3c(c2)COCO3)CC1 : reported IC50 = ? > 100 nM

Returns the measured IC50 for the input molecule. Input: O=C(C1CCN(C(c2ccc3c(c2)COCO3)c2ccc3c(c2)COCO3)CC1)n1nnc2ccccc21 > 100 nM

Entry under review: CCN(C(=O)N1CCN(C(c2ccc3c(c2)COCO3)c2ccc3c(c2)COCO3)CC1)C(C)C . Reported IC50? > 100 nM

I would be grateful if you could share the reported IC50 for Cn1ncc2cc(C(c3ccc4c(cnn4C)c3)N3CCN(C(=O)n4cnc(C#N)n4)CC3)ccc21 . 1 to 10 nM

Query (molecule): COc1ccc(C(c2ccc(OC)nc2)N2CCN(C(=O)n3cnc(C#N)n3)CC2)cn1 ; field requested: IC50 1 to 10 nM

I would be grateful if you could share the reported IC50 for O=C(OC1CCCCC1)N1CCN(C(c2ccc3c(c2)COCO3)c2ccc3c(c2)COCO3)CC1 . > 100 nM

Reference source: patent US12378231B2
